Values were extracted from the RNAGym collection of RNA variant scans (doi:10.7554/elife.80360).

B1: HDV Ribozyme (parent)
chain: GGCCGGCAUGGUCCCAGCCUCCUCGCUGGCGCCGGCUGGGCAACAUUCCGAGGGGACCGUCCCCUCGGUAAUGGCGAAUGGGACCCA

Variants of: B1
Experiment: self-cleavage, relative activity (ratio to wild type); higher = more cleavage; co-transcriptional
Assign a class from recorded self-cleavage; defined classes: L: < 0.2; M: ≥ 0.2 and < 0.3; H: ≥ 0.3

The following variants have reported results that may help.
{"columns": ["Sequence", "Label value"],
 "data": [
  ["GGCCGGCAUGGUCCCAGCCUCCUCGCUGGCGCCGUCUGGGCAACAUUCCGAGGGGACCGUCCCCUCGGUAAUGGCUAAUGGGACCCA", "H"],
  ["GGCCGGCAUGGUCCCAGCCUCCUCGCUCGCGCCGGCUGGGCAACAUUCCGAGGGGACCGUCCCCUCGGUAAUGGCGAGUGGGACCCA", "M"],
  ["GGCCGGCAUGGUCCCAGCCUCCUCGCUGGCGCCGGCUGGUCAACAUUCCGAGGGGACCGUCCCCUCGGUAAUGGGGAAUGGGACCCA", "L"],
  ["GGCCGGCAUGGUCCCAGCUUCCUCGCUGGCGCCGGCUGGGCAACAUUCCGAGGGGACCGUCCCCUCGGCAAUGGCGAAUGGGACCCA", "L"]
]}

(Q) Class? Entry: `UGCCGGCAUGGUCCCAGCCUCCUCGCUGGCGCCGGCUGGGCAACAUUCGGAGGGGACCGUCCCCUCGGUAAUGGCGAAUGGGACCCA`
(A) L

(Q) Class? Entry: `GGCCGGCAUGGUCCCAGCCUCCUCGCUGGCGCCGGCUGGGCAACAUUCCGAGGGGACCGUCCCCUCGGUAAUGGCGAAUGCGAACCA`
(A) M

(Q) Class? Entry: `GGCCGGCAUGGUCCCAGCCUCCUCGCUGGCGCCGGCUGGGCAACAUUCCGAAGGGACCGUCUCCUCGGUAAUGGCGAAUGGGACCCA`
(A) H

(Q) Class? Entry: `GGCAGUCAUGGUCCCAGCCUCCUCGCUGGCGCCGGCUGGGCAACAUUCCGAGGGGACCGUCCCCUCGGUAAUGGCGAAUGGGACCCA`
(A) L

(Q) Class? Entry: `GGCCGGCAUGGUCCCAGCCUCCCCGCUGGCGCCGGCUGGGCAACAUUCCGAGGGGACCGUCCCCUCGGUAAUGGCGAAUAGGACCCA`
(A) H

(Q) Class? Entry: `GGCCGGCAUGGUCCCAGCCUCCUCGCAGGCGCAGGCUGGGCAACAUUCCGAGGGGACCGUCCCCUCGGUAAUGGCGAAUGGGACCCA`
(A) M

(Q) Class? Entry: `GGCCGGCAUGGUCACAGCCUCCUCGCUCGCGCCGGCUGGGCAACAUUCCGAGGGGACCGUCCCCUCGGUAAUGGCGAAUGGGACCCA`
(A) L
